# assayed target: POLRMT (Homo sapiens (Human))
# Sequence (O00411 42-1230): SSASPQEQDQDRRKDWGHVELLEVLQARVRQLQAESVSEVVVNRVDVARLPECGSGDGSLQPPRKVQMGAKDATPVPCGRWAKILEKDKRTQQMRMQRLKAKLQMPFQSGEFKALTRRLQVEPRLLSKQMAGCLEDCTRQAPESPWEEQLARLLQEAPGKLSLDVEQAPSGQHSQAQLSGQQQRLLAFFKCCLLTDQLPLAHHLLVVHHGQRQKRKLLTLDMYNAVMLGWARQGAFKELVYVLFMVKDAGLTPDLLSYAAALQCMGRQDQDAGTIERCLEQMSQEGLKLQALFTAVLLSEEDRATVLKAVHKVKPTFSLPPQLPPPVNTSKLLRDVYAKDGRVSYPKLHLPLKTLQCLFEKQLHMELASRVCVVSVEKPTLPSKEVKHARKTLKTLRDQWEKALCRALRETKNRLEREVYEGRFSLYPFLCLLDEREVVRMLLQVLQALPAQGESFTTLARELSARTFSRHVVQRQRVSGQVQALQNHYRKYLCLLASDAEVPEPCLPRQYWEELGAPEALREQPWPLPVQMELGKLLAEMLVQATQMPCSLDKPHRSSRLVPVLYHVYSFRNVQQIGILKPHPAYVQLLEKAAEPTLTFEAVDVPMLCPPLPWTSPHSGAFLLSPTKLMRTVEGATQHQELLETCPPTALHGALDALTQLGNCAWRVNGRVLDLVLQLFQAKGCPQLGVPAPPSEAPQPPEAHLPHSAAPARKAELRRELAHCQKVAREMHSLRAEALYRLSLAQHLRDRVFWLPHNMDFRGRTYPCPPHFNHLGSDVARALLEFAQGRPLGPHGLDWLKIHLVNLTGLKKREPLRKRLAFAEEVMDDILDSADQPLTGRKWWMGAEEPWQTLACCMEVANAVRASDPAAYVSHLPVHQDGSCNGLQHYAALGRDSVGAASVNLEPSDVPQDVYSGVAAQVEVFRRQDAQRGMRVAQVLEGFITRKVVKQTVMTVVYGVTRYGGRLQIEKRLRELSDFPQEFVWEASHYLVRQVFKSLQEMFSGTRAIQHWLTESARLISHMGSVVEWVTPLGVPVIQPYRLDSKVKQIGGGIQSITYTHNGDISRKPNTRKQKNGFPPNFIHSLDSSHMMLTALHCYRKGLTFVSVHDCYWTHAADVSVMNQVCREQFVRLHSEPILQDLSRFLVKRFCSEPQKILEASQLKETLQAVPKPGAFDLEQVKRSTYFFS
# assay summary: homogeneous TR-FRET assay of POLRMT inhibition (mitochondrial transcription, 407 bp RNA product)
# assay context: 7.5 nM POLRMT, 15 nM TFB2M, 30 nM TFAM, 0.5 nM DNA template, 500 μM NTPs, 37° C., 60 minutes, * = aggregation of data sets, read-out: IC50 values for isoquinolinone compounds
// NB: equality with 40 nM counts as 0; only IC50 strictly below is 1

Task item: Given Cc1ccccc1-c1c[nH]c(=O)c2cc(O[C@H](C)C(=O)N3CCCC(C(C)(C)C(=O)O)C3)ccc12 (single isomer, unassigned) [Example 43] , is recorded IC50 strictly lower than 40 nM?
Reply: 1

Task item: Given `Cc1cccc(CO)c1-c1c[nH]c(=O)c2cc(OCC(F)F)ccc12` , is recorded IC50 strictly lower than 40 nM?
Reply: 0

Task item: Given `[2H]C([2H])([2H])c1ccccc1-c1c[nH]c(=O)c2cc(O[C@H](C)C(=O)N3CCN(C(N)=O)CC3)ccc12` , is recorded IC50 strictly lower than 40 nM?
Reply: 0

Task item: Given C[C@@H](Oc1ccc2c(-c3ccc(F)cc3Cl)c[nH]c(=O)c2c1)C(=O)N1CCCC(C2(C(=O)O)CC2)C1 (single isomer, unassigned) [Example 37] , is recorded IC50 strictly lower than 40 nM?
Reply: 0
